# system: T1, human CD112R antigen protein huCD112R-His (Acro Biosysterm, PVG-H52H4) (human, UniProt Q6DKI7 41-171)
# T1 construct: purchased; also called human antigen protein; not shown: His tag
# T1 sequence (looked up): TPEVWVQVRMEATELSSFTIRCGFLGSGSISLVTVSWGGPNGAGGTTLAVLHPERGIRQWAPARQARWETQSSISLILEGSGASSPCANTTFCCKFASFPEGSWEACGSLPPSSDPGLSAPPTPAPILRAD
# protocol-text: ELISA, huCD112R-His coated on plate
Each entry below carries its reported EC50.

binder: C62 (antibody, human IgG1, kappa, V domains shown) VH: EVMLVESGGGLVKPGGSLKLSCAASGFSFSSYSMSWVRQTPEKRLECVATIGGVGGNTYYPDSVKGRFSISRDNAKNTLYLQMSSLRSEDTALYYCARHEDYYYYAMDYWGQGTSVTVSS VL: QIVLTQSPAIMSASPGEKVTMTCSANSTVSYIYWYQQKPGSSPRLLIYDTSNLASGVPVRFSGSGSGTSYYLTISRMEAEDAATYYCQQWSSFPFTFGSGTKLEIKR
EC50 / nM: 0.032

binder: C20 (antibody, human IgG1, kappa, V domains shown) VH: EVQLVESGGGLVKPGGSLKLSCAASGFTFSDSYMCWVRQTPEKRLEWVATISDAGGYTYYPDSVKGRFTISRDNDRNNLYLQMSGLKSEDTAVYYCGREDLWGQGTSVTVSS VL: DIQMTQSPSSLSASLGERVSLTCRASQDIGRSLNWLQQEPDGTIKRLIYATSRLDSGVPKRFSGSRSGSDYSLTISSLESEDFVDYYCLQYASSPYTFGGGTKLEIKR
EC50 / nM: 2.27

binder: C67 (antibody, human IgG1, kappa, V domains shown) VH: EAQLQQSGPELVKPGASVKISCKASGYTFTDYYMNWVKQSHGKSLDWIGDINPDNGGSTYNQKFKGKATLTVDKSSSTAYMELRSLTSEDSAVYYCSASGPPYVLLDYWGQGTSVIVSS VL: DIQMTQSPASLSASVGETVTITCQTSENIYSYLAWYQQKQGKSPQLLVYNTQTLAEGVPSRFSGSRSGAQFSLKINSLQPEDFGSYYCQHHYGVPLTFGAGTKLELKR
EC50 / nM: 0.06
